TEST: Cytotoxicity against SKBR3 cells after 72 hrs by MTT assay
Assay type: cell-based
ASSAY_CONTEXT: Homo sapiens, SK-BR-3, 72 h
Kindly apply the following: satisfied if IC50 is less than 800 nM, not satisfied in every other case.

Study these solved cases before continuing.
> print(dat)
                               given.smiles  qualitative.label
1  COc1ccc2nc3cc(Cl)ccc3c(NCCCN(CCCNc3c4ccc(Cl)cc4nc4ccc(OC)cc34)Cc3ccccc3OC)c2c1          satisfied
2  COc1ccc2nc3cc(Cl)ccc3c(NCCCN(CCCNc3c4ccc(Cl)cc4nc4ccc(OC)cc34)Cc3ccco3)c2c1      not satisfied
3  COc1cccc(CN(CCCNc2c3ccc(Cl)cc3nc3ccc(OC)cc23)CCCNc2c3ccc(Cl)cc3nc3ccc(OC)cc23)c1          satisfied
4  COc1ccc2nc3cc(Cl)ccc3c(NCCCN(CCCNc3c4ccc(Cl)cc4nc4ccc(OC)cc34)Cc3cc(OC)c(OC)c(OC)c3)c2c1      not satisfied

Dear reviewer, please state whether COc1ccc2nc3cc(Cl)ccc3c(NCCCN(CCCNc3c4ccc(Cl)cc4nc4ccc(OC)cc34)Cc3ccccn3)c2c1 has IC50 strictly beneath 800 nM.
satisfied

Next entry: CCc1ccc(CN(CCCNc2c3ccc(Cl)cc3nc3ccc(OC)cc23)CCCNc2c3ccc(Cl)cc3nc3ccc(OC)cc23)o1
not satisfied
